- Test system: secreted phospholipase B (LPL/LPTA activities)
- testDescription: Radiometric assay, secreted LPL and LPTA activities (Lyso assay)
- Format: biochemical, Cryptococcus neoformans H99
- conditionsUsed: 250 μM

[
  {
    "cpdSmiles": "CC(C)C[N+](CCCCCCCCCCCC[N+](CC(C)C)(CC(C)C)CC(C)C)(CC(C)C)CC(C)C.[Br-].[Br-]",
    "outputUnit": "%",
    "Lyso assay (% inhibition) LPTA": 5
  },
  {
    "cpdSmiles": "CCCC[N+](CCCC)(CCCC)CCCCCCCCCCCCCCCC[N+](CCCC)(CCCC)CCCC",
    "outputUnit": "%",
    "Lyso assay (% inhibition) LPTA": 6
  },
  {
    "cpdSmiles": "C[N+](C)(C)CCCCCCCCCCCC[N+](C)(C)C",
    "outputUnit": "%",
    "Lyso assay (% inhibition) LPTA": 5
  }
]

----------
- Tested on: secreted phospholipase B (PLB activity)
- testDescription: Radiometric assay, secreted PLB activity
- Assay type: biochemical, Cryptococcus neoformans H99
- conditionsUsed: 2.5 μM; Secretory Cryptococcal H99 Phospholipase

[
  {
    "molecule": "CCCC[P+](CCCC)(CCCC)CCCCCCCCCCCC[P+](CCCC)(CCCC)CCCC",
    "subjectOfTest": "secreted phospholipase B (PLB activity)",
    "PLB, percentage inhibition of activity": "0%"
  },
  {
    "molecule": "CCCC[N+](CCCC)(CCCC)CCCCCCCCCCCC[N+](CCCC)(CCCC)CCCC",
    "subjectOfTest": "secreted phospholipase B (PLB activity)",
    "PLB, percentage inhibition of activity": "65%"
  },
  {
    "molecule": "C[N+](C)(C)CCCCCCCCCC[N+](C)(C)C [Compound 4, reference compound]",
    "subjectOfTest": "secreted phospholipase B (PLB activity)",
    "PLB, percentage inhibition of activity": "0%"
  },
  {
    "molecule": "CCCC[N+](CCCC)(CCCC)CCCCCCCCCC[N+](CCCC)(CCCC)CCCC",
    "subjectOfTest": "secreted phospholipase B (PLB activity)",
    "PLB, percentage inhibition of activity": "30%"
  }
]

----------
Form field: PLB assay (% inhibition) (one value per entry).
- Tested on: secreted phospholipase B (PLB activity)
- testDescription: Radiometric assay, secreted PLB activity
- Type: biochemical, Cryptococcus neoformans H99
- conditionsUsed: 25 μM

[
  {
    "cpdSmiles": "CCC[N+](CCC)(CCC)CCCCCCCCCCCC[N+](CCC)(CCC)CCC",
    "PLB assay (% inhibition) / %": 71
  },
  {
    "cpdSmiles": "CC(C)CC[N+](CCCCCCCCCCCC[N+](CCC(C)C)(CCC(C)C)CCC(C)C)(CCC(C)C)CCC(C)C.[Cl-].[Cl-]",
    "PLB assay (% inhibition) / %": 68
  }
]

----------
Form field: PLB assay (% inhibition) (one value per entry).
- System: secreted phospholipase B (PLB activity)
- testDescription: Radiometric assay, secreted PLB activity
- Format: biochemical, Cryptococcus neoformans H99
- conditionsUsed: 2.5 μM
assayEndpoint: PLB assay (% inhibition) (%)

[
  {
    "cpdSmiles": "CCC[N+](CCC)(CCC)CCCCCCCCCCCC[N+](CCC)(CCC)CCC",
    "outputUnit": "%",
    "number": 6
  },
  {
    "cpdSmiles": "CCCC[N+](CCCC)(CCCC)CCCCCCCCCCCC[N+](CCCC)(CCCC)CCCC",
    "outputUnit": "%",
    "number": 6
  }
]

----------
Form field: Membrane-associated LPL activity, percentage of the control (one value per entry).
- Test system: membrane-associated phospholipase B (LPL/LPTA activities)
- testDescription: Radiometric assay, membrane-associated LPL/LPTA activities
- Assay type: biochemical, Cryptococcus neoformans H99
- conditionsUsed: pH 7.0; modifier 10 mM (Triton X-100 0.1% w/v)
Marks after values point to notes of the source that are not given here.
assayEndpoint: Membrane-associated LPL activity, percentage of the control

[
  {
    "cpdSmiles": "[Ca+2]",
    "subjectOfTest": "membrane-associated phospholipase B (LPL/LPTA activities)",
    "result": "166* %"
  },
  {
    "cpdSmiles": "[Cl][Fe]([Cl])[Cl]",
    "subjectOfTest": "membrane-associated phospholipase B (LPL/LPTA activities)",
    "result": "61* %"
  },
  {
    "cpdSmiles": "[Mg+2]",
    "subjectOfTest": "membrane-associated phospholipase B (LPL/LPTA activities)",
    "result": "145* %"
  }
]

----------
- System: Cryptococcus neoformans ATCC 90112
- testDescription: Antifungal susceptibility testing, microdilution MIC
- Format: cell-based
- conditionsUsed: Cryptococcus neoformans, ATCC90112; Table 7; read-out: MIC (μM) Crypto. (ATCC 90112)

[
  {
    "compound": "CCCCCCCCCCCCCCCC[P+](CCCC)(CCCC)CCCC",
    "subjectOfTest": "Cryptococcus neoformans ATCC 90112",
    "MIC": "≤ 0.6 µM"
  },
  {
    "compound": "C[N+](C)(C)CCCCCCCCCC[N+](C)(C)C [Compound 4, reference compound]",
    "subjectOfTest": "Cryptococcus neoformans ATCC 90112",
    "MIC": "≥ 350 µM"
  },
  {
    "compound": "CCCC[N+]1(CCCCCCCCCCCC[N+]2(CCCC)CCCC2)CCCC1 [C12-bis-N-butyl-pyro. dibromide]",
    "subjectOfTest": "Cryptococcus neoformans ATCC 90112",
    "MIC": "88 µM"
  },
  {
    "compound": "CCC[N+](CCC)(CCC)CCCCCCCCCCCC[N+](CCC)(CCC)CCC",
    "subjectOfTest": "Cryptococcus neoformans ATCC 90112",
    "MIC": "5.5 µM"
  },
  {
    "compound": "CCCC[N+](CCCC)(CCCC)CCCCCCCCCC[N+](CCCC)(CCCC)CCCC [Compound 2]",
    "subjectOfTest": "Cryptococcus neoformans ATCC 90112",
    "MIC": "11 µM"
  }
]

----------
- Test system: membrane-associated phospholipase B (PLB activity)
- testDescription: Radiometric assay, membrane-associated PLB activity
- Format: biochemical, Cryptococcus neoformans H99
- conditionsUsed: pH 7.0; modifier 10 mM (Triton X-100 0.1% w/v)
Marks after values point to notes of the source that are not given here.
Form field: Membrane-associated PLB activity, percentage of the control (one value per entry).
assayEndpoint: Membrane-associated PLB activity, percentage of the control

[
  {
    "cpdSmiles": "[Cl][Fe]([Cl])[Cl]",
    "result": "2* %"
  },
  {
    "cpdSmiles": "[Mg+2]",
    "result": "467* %"
  },
  {
    "cpdSmiles": "[Ca+2]",
    "result": "533* %"
  }
]

----------
- Tested on: membrane-associated phospholipase B (LPL/LPTA activities)
- testDescription: Radiometric assay, membrane-associated LPL/LPTA activities
- Assay type: biochemical, Cryptococcus neoformans H99
- conditionsUsed: pH 7.0; modifier 10 mM (Triton X-100 0.1% w/v)
Marks after values point to notes of the source that are not given here.
Form field: Membrane-associated LPTA activity, percentage of the control (one value per entry).
assayEndpoint: Membrane-associated LPTA activity, percentage of the control

[
  {
    "compound": "[Mg+2] [Magnesium]",
    "subjectOfTest": "membrane-associated phospholipase B (LPL/LPTA activities)",
    "result": "123* %"
  },
  {
    "compound": "[Cl][Fe]([Cl])[Cl] [FeCl3]",
    "subjectOfTest": "membrane-associated phospholipase B (LPL/LPTA activities)",
    "result": "45* %"
  },
  {
    "compound": "[Ca+2] [Calcium]",
    "subjectOfTest": "membrane-associated phospholipase B (LPL/LPTA activities)",
    "result": "140* %"
  }
]
